system: W2; assay: qHTS profiling for inhibitors of Plasmodium falciparum proliferation (AID 504749); note: nearly all actives have a fitted effect of over 60% in size; conditions: P. falciparum in erythrocytes, SYBR Green DNA, 72 h; series mostly up to 28.7 µM
Results filed as inconclusive are left out. Activity calls are given as the source filed them. Calls come from the whole dose curve; as a rule, active = well fitted inhibition curve with a large enough effect; inconclusive = small, poorly fitted or top-dose-only effect; inactive = flat fitted curve, though single readings scatter.
Select the correct class. Options are 1 = active, -1 = inactive and nothing else.

Completed entries (count: 10):
CC(C)NC[C@@H](O)COc1cccc2ccccc12	1
CC(=O)Oc1ccc(C(c2ccc(OC(C)=O)cc2)c2ccccn2)cc1	-1
CC(C)(CO)[C@@H](O)C(=O)NCCCO	-1
CC(C)(C)CC(C)(C)c1ccc(O)c(Cc2ccc(Cl)cc2Cl)c1	1
CNCCC=C1c2ccccc2CCc2ccccc21	1
O=S1(=O)c2cccc3cccc(c23)N1CCCN1CCN(c2ccc(F)cc2)CC1	-1
CCCCC(CC)CN=C(N)NC(N)=NCCCCCCN=C(N)NC(N)=NCC(CC)CCCC (configuration not stated)	1
CC(C)(Oc1ccc(Cl)cc1)C(=O)O	-1
COc1ccc(CCN2CCC(Nc3nc4ccccc4n3Cc3ccc(F)cc3)CC2)cc1	1
C=CCc1ccc(O)c(OC)c1	-1

GET /call?item= "O=C(O)CNC(=O)c1ccccc1" returns the recorded outcome of this test.
-1

GET /call?item= "CC(=O)Oc1ccc(C(=C2CCCCC2)c2ccc(OC(C)=O)cc2)cc1" returns the recorded outcome of this test.
-1

---

molecular target: Tumor necrosis factor (Homo sapiens); experiment: qHTS assay to identify small molecules that stimulate Tumor Necrosis Factor-alpha (TNF-alpha) secretion (AID 651757); settings: Human cells, HTRF 665/615 ratio; series mostly up to 92.2 µM; note: 0% is about no effect
Records with an inconclusive call do not appear. The source made the active and inactive calls. Calls come from the whole dose curve; as a rule, active = well fitted curve in the direction sought with a large enough effect in the signal ratio; inconclusive = small, poorly fitted or top-dose-only effect, or a change in a side signal; inactive = no such curve, though single readings can be large or run the other way; the % refers to the signal ratio.
quantity: outcome

Below are worked cases with known answers.
CC(C)(C)CC(C)(C)c1ccc(OCCOCC[N+](C)(C)Cc2ccccc2)cc1	inactive
O=c1ccc2ccccc2o1	inactive
CC(=O)Oc1ccc(C(c2ccc(OC(C)=O)cc2)c2ccccn2)cc1	inactive
Oc1c(Cl)cc(Cl)cc1Sc1cc(Cl)cc(Cl)c1O	inactive
O=C(O)CCCCC(=O)O	inactive
Oc1ccc(Cl)cc1Sc1cc(Cl)ccc1O	inactive
CC(O)C(=O)O (stereo not drawn)	inactive

Let us examine a further case.
Find the measured outcome: item "Oc1c(I)cc(Cl)c2cccnc12" , target or system Tumor necrosis factor (Homo sapiens).
inactive

---

test: Cell Viability - LYMP2-024 (AID 988); settings: LYMP2-024 lymphoblastoid cell viability; series mostly up to 92.2 µM;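 note: cells exposed to compound for 24 hr at 37 °C; nearly all actives have a fitted effect of over 60% in size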
Records with an inconclusive call do not appear. Calls of active or inactive are those of the source. Calls follow the shape of the dose curve; as a rule, active = well fitted cell-killing curve with a large enough effect; inconclusive = small, poorly fitted or top-dose-only effect; inactive = flat fitted curve, though single readings scatter. Numbered stars: 1 amine (or outer) side, 2 acyl side, 3 side chain; on linkers, the order of the positions; unused ones are H or OH. Bridge positions count the residues as written; N and C are the ends. Square brackets hold non-standard residues; d marks the D form. Peptide text beside a SMILES is read from it. I, II: the chains in the order shown. Actinocin(9to1) = Cc1c2oc3c(C)ccc(C(=O)[*:1])c3nc-2c(C(=O)[*:2])c(N)c1=O; NMeV = CN[C@H](C(=O)O)C(C)C; Sar = CNCC(=O)O
Select the correct class. Options are active, inactive and nothing else.

Completed entries (count: 5):
COc1cccc2c1C(=O)c1c(O)c3c(c(O)c1C2=O)C[C@@](O)(C(C)=O)C[C@@H]3O[C@H]1C[C@H](N)[C@H](O)[C@H](C)O1	active
C[C@]12CC[C@@H]3c4ccc(O)cc4CC[C@H]3[C@@H]1CC[C@@H]2O	inactive
NC(=NCCCCCCN=C(N)/N=C(\N)Nc1ccc(Cl)cc1)/N=C(\N)Nc1ccc(Cl)cc1	active
Cc1c2oc3c(C)ccc(C(=O)N[C@@H]4C(=O)N[C@H](C(C)C)C(=O)N5CCC[C@H]5C(=O)N(C)CC(=O)N(C)[C@@H](C(C)C)C(=O)O[C@@H]4C)c3nc-2c(C(=O)N[C@@H]2C(=O)N[C@H](C(C)C)C(=O)N3CCC[C@H]3C(=O)N(C)CC(=O)N(C)[C@@H](C(C)C)C(=O)O[C@@H]2C)c(N)c1=O (I: T[dV]P[Sar][NMeV] / II: T[dV]P[Sar][NMeV]; ester I:1-I:C, II:1-II:C; linker I:N-II:N via Actinocin(9to1))	active
O=C1OC(c2ccc(O)cc2)(c2ccc(O)cc2)c2ccccc21	inactive

GET /call?item= "CC(=O)Oc1ccc(C(c2ccc(OC(C)=O)cc2)c2ccccn2)cc1" returns the recorded outcome of this test.
inactive

GET /call?item= "O=c1ccc2ccccc2o1" returns the recorded outcome of this test.
inactive

---

Target: Cytochrome P450 1A2 (Homo sapiens) (UniProt P05177)
Sequence (P05177 whole entry, looked up): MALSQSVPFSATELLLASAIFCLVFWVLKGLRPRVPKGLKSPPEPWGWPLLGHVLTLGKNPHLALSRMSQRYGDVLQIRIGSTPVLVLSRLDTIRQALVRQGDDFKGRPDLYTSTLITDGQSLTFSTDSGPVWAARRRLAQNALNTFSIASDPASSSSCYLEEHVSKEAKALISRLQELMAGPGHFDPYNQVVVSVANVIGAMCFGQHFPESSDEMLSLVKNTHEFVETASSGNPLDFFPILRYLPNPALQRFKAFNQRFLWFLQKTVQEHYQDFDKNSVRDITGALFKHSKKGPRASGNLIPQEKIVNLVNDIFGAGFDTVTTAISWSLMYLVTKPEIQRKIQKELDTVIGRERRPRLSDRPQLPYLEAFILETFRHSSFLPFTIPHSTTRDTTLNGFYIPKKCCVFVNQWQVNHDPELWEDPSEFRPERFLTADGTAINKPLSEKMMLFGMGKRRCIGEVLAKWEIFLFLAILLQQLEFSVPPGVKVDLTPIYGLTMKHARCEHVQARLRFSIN
Assay: p450-cyp1a2 (AID 410)
Conditions: recombinant CYP1A2, luciferin-ME demethylation, luminescence; series mostly up to 25.6 µM
Description: The P450 gene superfamily is involved in metabolism and the clearance of xenobiotics. This assay used human CYP1A2 to measure the demethylation of luciferin 6' methyl ether (Luciferin-ME; Promega-Glo) to luciferin. The luciferin is then measured by luminescence after the addition of a luciferase detection regeant. Luciferin-ME concentration in the assay was equal to its Km for CYP1A2. NCGC Assay Protocol Summary: […]
Records with an inconclusive call do not appear. The source made the active and inactive calls. Calls come from the whole dose curve.
Select the correct class. Options are active, inactive and nothing else.

Completed entries (count: 5):
CCCn1c(=O)[nH]c(=O)c2[nH]cnc21	inactive
Cc1ccnc(NS(=O)(=O)c2ccc(N)cc2)n1	inactive
Nc1nc2ncc(CNc3ccc(C(=O)N[C@@H](CCC(=O)O)C(=O)O)cc3)nc2c(=O)[nH]1	inactive
Cc1cc(=O)n(-c2ccccc2)n1C	inactive
CN1[C@@H]2CC[C@H]1CC(OC(=O)c1c[nH]c3ccccc13)C2 (some centres not stated)	inactive

GET /call?item= "Cc1c(N(C)CS(=O)(=O)O)c(=O)n(-c2ccccc2)n1C" returns the recorded outcome of this test.
inactive

GET /call?item= "C1CCc2nnnn2CC1" returns the recorded outcome of this test.
inactive

GET /call?item= "CCN(CC)C(=O)N1CCN(C)CC1" returns the recorded outcome of this test.
inactive

GET /call?item= "CCCCOc1cc(C(=O)NCCN(CC)CC)c2ccccc2n1" returns the recorded outcome of this test.
active

GET /call?item= "CCOC(=O)n1ccn(C)c1=S" returns the recorded outcome of this test.
active

GET /call?item= "O=C(COc1ccc(Cl)cc1)N1CCN(Cc2ccc3c(c2)OCO3)CC1" returns the recorded outcome of this test.
active

GET /call?item= "COc1c2occc2c(OC)c2c(=O)cc(C)oc12" returns the recorded outcome of this test.
active

---

tested on: CP194; experiment: qHTS profiling for inhibitors of Plasmodium falciparum proliferation (AID 504749); note: nearly all actives have a fitted effect of over 60% in size; conditions: P. falciparum in erythrocytes, SYBR Green DNA, 72 h; series mostly up to 28.7 µM
Records with an inconclusive call do not appear. Active and inactive are the calls of the source. Calls come from the whole dose curve; as a rule, active = well fitted inhibition curve with a large enough effect; inconclusive = small, poorly fitted or top-dose-only effect; inactive = flat fitted curve, though single readings scatter. Numbered stars: 1 amine (or outer) side, 2 acyl side, 3 side chain; on linkers, the order of the positions; unused ones are H or OH. Bridge positions count the residues as written; N and C are the ends. Square brackets hold non-standard residues; d marks the D form. Peptide text beside a SMILES is read from it. I, II: the chains in the order shown. Actinocin(9to1) = Cc1c2oc3c(C)ccc(C(=O)[*:1])c3nc-2c(C(=O)[*:2])c(N)c1=O; NMeV = CN[C@H](C(=O)O)C(C)C; Sar = CNCC(=O)O
Select the correct class. Options are Yes = active, No = inactive and nothing else.

Completed entries (count: 6):
O=C1OC(c2ccc(O)cc2)(c2ccc(O)cc2)c2ccccc21	No
CN=C(NC#N)NCCSCc1csc(N=C(N)N)n1	No
COc1cccc2c1C(=O)c1c(O)c3c(c(O)c1C2=O)C[C@@](O)(C(C)=O)C[C@@H]3O[C@H]1C[C@H](N)[C@H](O)[C@H](C)O1	Yes
Cc1ccnc(NS(=O)(=O)c2ccc(N)cc2)n1	No
CCCCOc1ccc(C(=O)CCN2CCCCC2)cc1	No
CC(=O)Nc1c(I)cc(I)c(C(=O)O)c1I	No

GET /call?item= Cc1c2oc3c(C)ccc(C(=O)N[C@@H]4C(=O)N[C@H](C(C)C)C(=O)N5CCC[C@H]5C(=O)N(C)CC(=O)N(C)[C@@H](C(C)C)C(=O)O[C@@H]4C)c3nc-2c(C(=O)N[C@@H]2C(=O)N[C@H](C(C)C)C(=O)N3CCC[C@H]3C(=O)N(C)CC(=O)N(C)[C@@H](C(C)C)C(=O)O[C@@H]2C)c(N)c1=O (I: T[dV]P[Sar][NMeV] / II: T[dV]P[Sar][NMeV]; ester I:1-I:C, II:1-II:C; linker I:N-II:N via Actinocin(9to1)) returns the recorded outcome of this test.
Yes

---

Test system: CP329
Assay: qHTS profiling for inhibitors of Plasmodium falciparum proliferation (AID 504749); note: nearly all actives have a fitted effect of over 60% in size
Settings: P. falciparum in erythrocytes, SYBR Green DNA, 72 h; series mostly up to 28.7 µM
Experimental: NIH National Institute of Allergy and Infectious Diseases [NIAID] NIH Chemical Genomics Center [NCGC] […] Because mature erythrocytes lack DNA, only Plasmodium-derived DNA is detected. NCGC Assay Protocol Summary: The SYBR Green viability assay was adapted from a method described previously (Plouffe et al., 2008). […] The following morning, fluorescence intensity at 485(14) nm excitation and 535(25) nm emission wavelengths was measured on an EnVision (Perkin Elmer) plate reader. […]
Records with an inconclusive call do not appear. Calls of active or inactive are those of the source. The call rests on the fitted dose curve; in most records, active means well fitted inhibition curve with a large enough effect; inconclusive means small, poorly fitted or top-dose-only effect; inactive means flat fitted curve, though single readings scatter.
Select the correct class. Options are t (active), f (inactive) and nothing else.

CC(=O)N/N=C/c1ccc([N+](=O)[O-])o1	f
Nc1cc(Cl)c(NC2=NCCN2)c(Cl)c1	f
CCOc1ccc2nc3cc(N)ccc3c(N)c2c1	t
CCCCCCCCCCCCCCCCOP(=O)([O-])OCC[N+](C)(C)C	f
NCCCC[C@H](N[C@@H](CCc1ccccc1)C(=O)O)C(=O)N1CCC[C@H]1C(=O)O	f
O=C(Nc1ccc(Oc2ccc(Cl)cc2)c(Cl)c1)c1cc(I)cc(I)c1O	f

GET /call?item= CC(Cc1cccc(C(F)(F)F)c1)NCCOC(=O)c1ccccc1 (configuration not stated) returns the recorded outcome of this test.
f

GET /call?item= "Cc1c(C(C)C)c(=O)n(-c2ccccc2)n1C" returns the recorded outcome of this test.
f

GET /call?item= "CN(C)/N=N/c1nc[nH]c1C(N)=O" returns the recorded outcome of this test.
f

GET /call?item= CCCCCCCCCCOCC(O)CN (configuration not stated) returns the recorded outcome of this test.
f

GET /call?item= "CC(=O)OCC(=O)NCCCOc1cccc(CN2CCCCC2)c1" returns the recorded outcome of this test.
f

GET /call?item= "COc1ccc(C2C(=O)c3ccccc3C2=O)cc1" returns the recorded outcome of this test.
f
